Provide the recorded GI50 for the entries that follow.
- TESTED_TARGET: Ba/F3 EGFR-V769_D770insASV (Homo sapiens, UniProt P00533, DUP767-769, cells depend on it)
- Sequence (P00533 with tags, fused parts or gaps DUP767-769): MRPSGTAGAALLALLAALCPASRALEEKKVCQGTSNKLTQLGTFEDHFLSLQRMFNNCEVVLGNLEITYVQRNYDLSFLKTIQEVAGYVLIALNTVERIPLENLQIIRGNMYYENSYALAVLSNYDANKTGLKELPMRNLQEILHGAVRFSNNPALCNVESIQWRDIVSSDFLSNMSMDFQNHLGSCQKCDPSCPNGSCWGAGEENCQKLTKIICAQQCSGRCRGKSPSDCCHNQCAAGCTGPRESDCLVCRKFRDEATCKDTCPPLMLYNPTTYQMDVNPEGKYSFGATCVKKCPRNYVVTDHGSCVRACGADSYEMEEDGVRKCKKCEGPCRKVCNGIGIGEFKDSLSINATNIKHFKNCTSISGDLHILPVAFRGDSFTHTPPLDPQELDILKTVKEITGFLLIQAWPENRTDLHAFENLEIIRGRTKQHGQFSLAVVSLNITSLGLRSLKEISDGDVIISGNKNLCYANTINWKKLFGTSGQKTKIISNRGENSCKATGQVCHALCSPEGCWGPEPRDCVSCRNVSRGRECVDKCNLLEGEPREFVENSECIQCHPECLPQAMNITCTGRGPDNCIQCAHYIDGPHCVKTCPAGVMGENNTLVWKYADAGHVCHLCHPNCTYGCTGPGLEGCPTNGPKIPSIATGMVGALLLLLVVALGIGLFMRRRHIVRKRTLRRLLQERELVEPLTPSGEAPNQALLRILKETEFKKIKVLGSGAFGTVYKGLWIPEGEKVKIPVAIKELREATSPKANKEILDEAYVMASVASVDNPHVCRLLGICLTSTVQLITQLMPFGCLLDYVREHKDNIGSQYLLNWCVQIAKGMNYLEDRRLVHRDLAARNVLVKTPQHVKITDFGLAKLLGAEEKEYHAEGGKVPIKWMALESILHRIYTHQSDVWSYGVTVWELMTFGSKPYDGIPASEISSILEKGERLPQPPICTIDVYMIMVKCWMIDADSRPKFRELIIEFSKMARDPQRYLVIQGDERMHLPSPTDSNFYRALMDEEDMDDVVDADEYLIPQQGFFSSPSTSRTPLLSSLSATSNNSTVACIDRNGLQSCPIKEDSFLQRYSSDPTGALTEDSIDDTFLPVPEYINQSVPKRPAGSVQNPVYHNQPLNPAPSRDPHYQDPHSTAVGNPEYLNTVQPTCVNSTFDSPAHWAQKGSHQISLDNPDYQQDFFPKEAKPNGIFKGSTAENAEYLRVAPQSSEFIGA
- EXPERIMENT: Proliferation experiment of Ba/F3 cell line, EGFR-V769_D770insASV (CellTiter-Glo)
- Assay type: cell-based
- PROTOCOL_CONDITIONS: cultured for 72 hrs with compound, CTG analysis, read-out: Ba/F3 EGFR-V769_D770insASV IC50
Give bare numbers, in nM.

Worked examples follow.
[[record]]
input_smiles = "C=CC(=O)Nc1cc2c(Nc3cccc(-c4c(F)cccc4F)c3)ncnc2cc1OCCCN1CC[C@H](N(C)C)C1"
tested_target = "Ba/F3 EGFR-V769_D770insASV (Homo sapiens, UniProt P00533, DUP767-769, cells depend on it)"
value_reported = 35.6

[[record]]
input_smiles = "C=CC(=O)Nc1cc2c(Nc3ccc(F)c(-c4ccccc4F)c3)ncnc2cc1OCCCN1CCN(C)CC1"
tested_target = "Ba/F3 EGFR-V769_D770insASV (Homo sapiens, UniProt P00533, DUP767-769, cells depend on it)"
value_reported = 25.6

[[record]]
input_smiles = "C=CC(=O)Nc1cc2c(Nc3cccc(-c4c(F)cccc4F)c3)ncnc2cc1OCCCN1CCN(C)CC1"
tested_target = "Ba/F3 EGFR-V769_D770insASV (Homo sapiens, UniProt P00533, DUP767-769, cells depend on it)"
value_reported = 20.3

[[record]]
input_smiles = "C=CC(=O)Nc1cc2c(Nc3ccnc(-c4ccccc4F)c3)ncnc2cc1OCC"
tested_target = "Ba/F3 EGFR-V769_D770insASV (Homo sapiens, UniProt P00533, DUP767-769, cells depend on it)"
value_reported = 7.5

[[record]]
input_smiles = "C=CC(=O)Nc1cc2c(Nc3cccc(-n4cccn4)c3)ncnc2cc1OCCCN1CCN(C)CC1"
tested_target = "Ba/F3 EGFR-V769_D770insASV (Homo sapiens, UniProt P00533, DUP767-769, cells depend on it)"
value_reported = 22.3

[[record]]
input_smiles = "C=CC(=O)Nc1cc2c(Nc3ccnc(-c4ccccc4F)c3)ncnc2cc1OCCCN1CCN(CCOC)CC1"
tested_target = "Ba/F3 EGFR-V769_D770insASV (Homo sapiens, UniProt P00533, DUP767-769, cells depend on it)"
value_reported = 2.4

[[record]]
input_smiles = "C=C(F)C(=O)Nc1cc2c(Nc3ccnc(-c4ccccc4F)c3)ncnc2cc1OC"
tested_target = "Ba/F3 EGFR-V769_D770insASV (Homo sapiens, UniProt P00533, DUP767-769, cells depend on it)"
value_reported = 5.1

[[record]]
input_smiles = "C=CC(=O)Nc1cc2c(Nc3cccc(-c4c(F)cccc4F)c3)ncnc2cc1OCCCN1CCN(C)C(=O)C1"
tested_target = "Ba/F3 EGFR-V769_D770insASV (Homo sapiens, UniProt P00533, DUP767-769, cells depend on it)"
value_reported = 86.3

[[record]]
input_smiles = "C=CC(=O)Nc1cc2c(Nc3ccnc(-c4ccc(F)cc4F)c3)ncnc2cc1O[C@@H]1CCN(C)C1"
tested_target = "Ba/F3 EGFR-V769_D770insASV (Homo sapiens, UniProt P00533, DUP767-769, cells depend on it)"
value_reported = 5.2

[[record]]
input_smiles = "C=C(F)C(=O)Nc1cc2c(Nc3ccnc(-c4ccccc4F)c3)ncnc2cc1N1CCN(C)CC1"
tested_target = "Ba/F3 EGFR-V769_D770insASV (Homo sapiens, UniProt P00533, DUP767-769, cells depend on it)"
value_reported = 20.8


For every item in the list below, what is its measured GI50?
1. C=CC(=O)Nc1cc2c(Nc3ccnc(-c4ccccc4F)c3)ncnc2cc1N1CCOCC1
2. C=CC(=O)Nc1cc2c(Nc3ccnc(-c4ccccc4F)c3)ncnc2cc1OCCN1CCOCC1

### Response
1.9
2.5

State recorded GI50 for all listed compounds.
1. C=CC(=O)Nc1cc2c(Nc3cncc(-c4ccccc4F)c3)ncnc2cc1O[C@@H]1CCN(C)C1
2. C=CC(=O)Nc1cc2c(Nc3ccc(F)c(-c4ccccc4)c3)ncnc2cc1OCCCN1CCN(C)CC1
3. C=C(F)C(=O)Nc1cc2c(Nc3ccnc(-c4ccccc4F)c3)ncnc2cc1O[C@@H]1CCN(C2CN(C)C2)C1
4. C=CC(=O)Nc1cc2c(Nc3cccc(-n4nccn4)c3)ncnc2cc1OCCCN1CCOCC1
5. C=C(F)C(=O)Nc1cc2c(Nc3ccnc(-c4ccccc4F)c3)ncnc2cc1O[C@@H]1CCN(C)C1
6. C=CC(=O)Nc1cc2c(Nc3ccnc(-c4ccccc4F)c3)ncnc2cc1OCCCN1CCN(CCO)CC1
7. C=C(F)C(=O)Nc1cc2c(Nc3ccnc(-c4ccccc4F)c3)ncnc2cc1O[C@@H]1CCN(C2COC2)C1
8. C=C(F)C(=O)Nc1cc2c(Nc3ccnc(-c4ccccc4F)c3)ncnc2cc1O[C@@H]1CCN(C2CCN(C)CC2)C1

### Response
1: 38.1; 2: 41.4; 3: 3.4; 4: 34.6; 5: 6.5; 6: 6.8; 7: 9.8; 8: 7.1
